// values below are reported Neutralizing activity (%) at 250 µg/ml
- target entity: Influenza virus A/Suita/1/2009pdm (H1N1 2009 pandemic) (Influenza A virus A/Suita/1/2009pdm (H1N1pdm))
- assay info: cell-based or functional assay
value type: Neutralizing activity (%) at 250 µg/ml

1) Group 57 representative clone F083-103, Fab-PP-type antibody (Fab, V domains shown) VH: QVQLQQSGADVKKAGSSVKVSCKASGRTFGNYAISWVRQAPGQGLEWMGGITPIFGAANYAQKFQGRVTISADLSTRMVYMDLSSLRSDDTAFYYCAGHPTYHYGSAMDYWGQGTLVTVSS VL: QSVLTQPPSVSAAPGQKVTITCSGSSSNIGNNYVSWYQQLPGTAPKLLISEGSNRPSGIPDRFSGSKSGTSATLGITGLQTGDEATYYCATWDDSLSVVLFGGGTRLTVLS
83.8
2) Group 54 representative clone F083-354, Fab-PP-type antibody (Fab, V domains shown) VH: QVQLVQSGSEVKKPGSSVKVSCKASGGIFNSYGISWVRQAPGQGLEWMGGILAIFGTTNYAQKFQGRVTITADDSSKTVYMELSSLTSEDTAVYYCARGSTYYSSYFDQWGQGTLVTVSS VL: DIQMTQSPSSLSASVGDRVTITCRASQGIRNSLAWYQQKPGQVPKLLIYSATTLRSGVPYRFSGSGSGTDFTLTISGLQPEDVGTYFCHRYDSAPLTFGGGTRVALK
94.2
3) Group 80 representative clone F083-373, Fab-PP-type antibody (Fab, V domains shown) VH: QVQLVQSGADVKKPGSSVRVSCKASGRTFGNYAISWVRQAPGQGLEWMGGITPIFGAANYAQKFQGRVTISADLSTTMVYMDLSSLRSDDTAFYYCAGHPTYYYGSPMDYWGQGTLVTVSS VL: EIVLTQSPSSLSASVGDRVTITCRASQSIATYLNWYQQKPGKAPNLLIYAASNLQSGVPSRFSGSGSGTDFTLTISSLQPEDFATYVCLQSYSATLTFGGGTKVEIK
7.7
